Where do these numbers come from? They come from the SangsterLogP compilation.

assay: method code SF-MS, from DOI: 10.1016/j.fluid.2014.01.017; details: pH 7.6
REPORTED METRIC: logD

CCCCCC/C=C/C=O = 3.11
CCCCC/C=C\C=O = 2.38

* * *

assay: method code SF-AS, from PMID: 872227; conditions: pH 7.2
REPORTED METRIC: logD

CCCOc1ccc(NC(=O)OCCN2CCOCC2)c(C)c1 = 2.21

* * *

test: method code SF-AS, from PMID: 1586384
// reported logP for each item listed
REPORTED METRIC: logP

CC(=O)OCOC(=O)c1cn2c3c(c(N4CCN(C)CC4)c(F)cc3c1=O)OCC2C (configuration not stated) = 0.02
CC(=O)OC(C)OC(=O)c1cn2c3c(c(N4CCN(C)CC4)c(F)cc3c1=O)OCC2C (configuration not stated) = 0.26
